EC50 Fold Change (+BP/-BP), PBMC assay (hIFNγ release) for assorted binders
- Measured on: T1, hIL-18BP-hFc (human, UniProt O95998 31-194, limits assumed)
- T1 sequence (looked up): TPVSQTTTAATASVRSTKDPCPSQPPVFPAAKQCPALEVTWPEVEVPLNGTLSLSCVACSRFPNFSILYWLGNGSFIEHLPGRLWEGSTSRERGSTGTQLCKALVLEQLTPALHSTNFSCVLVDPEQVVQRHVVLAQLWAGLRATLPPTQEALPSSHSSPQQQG
- Protocol summary: cell-based or functional assay
Measured parameter: EC50 Fold Change (+BP/-BP), PBMC assay (hIFNγ release)

# Binder, Reported
data = [
    ("IL-18 variant polypeptide MM5 (ligand) YFGKLGSKLSVIRNLNDQVLFIDQGNRPLFEDMTDSDCRDNAPRTIFIISMYKLSTERGMAVTISVKCEKISTLSCENKIISFKEMNPPDGIKDTKSDIIFFQSSVPGHDNKMQFESSSYEGYFLACEKERDLFKLILKKEDELGDRSIMFTVQNED", "1.29 fold"),
    ("IL-18 variant polypeptide M35 (ligand) YFPKLRSKLSVIRNLNDQVLFIDQGNRPLFEDMTDSDCRDNAPRTIFIISMYKGSGARGMAVTISVKCEKISTLSCENKIISFKEMNPPDGIKDTKSDIIFFQRSVPGHDNKMQFESSSYEGYFLACEKERDLFKLILKKEDELGDRSIMFTVQNED", "1.65 fold"),
    ("IL-18 variant polypeptide WM8 (ligand) YFPKLRSKLSVIRNLNDQVLFIDQGNRPLFEDMTDSDCRDNAPRTIFIISMYKDSQPRGMAVTISVKCEKISTLSCENKIISFKEMNPPDSIKDTKSDIIFFQRSVPGHDNKMQFESSSYEGYFLACEKERDLFKLILKKEDELGDRSIMFTVQNED", "1.5 fold"),
    ("IL-18 variant polypeptide M13 (ligand) YFPKLKSKLSVIRNLNDQVLFIDQGNRPLFEDMTDSDCRDNAPRTIFIISMYKQSIWRGMAVTISVKCEKISTLSCENKIISFKEMNPPDNIKDTKSDIIFFQRSVPGHDNKMQFESSSYEGYFLACEKERDLFKLILKKEDELGDRSIMFTVQNED", "1.25 fold"),
    ("IL-18 variant polypeptide M11 (ligand) YFPKLRSKLSVIRNLNDQVLFIDQGNRPLFEDMTDSDCRDNAPRTIFIISMYKSSRNRGMAVTISVKCEKISTLSCENKIISFKEMNPPDGIKDTKSDIIFFQTSVPGHDNKMQFESSSYEGYFLACEKERDLFKLILKKEDELGDRSIMFTVQNED", "1.55 fold"),
    ("IL-18 variant polypeptide WM10 (ligand) YFPKLKSKLSVIRNLNDQVLFIDQGNRPLFEDMTDSDCRDNAPRTIFIISMYKDSQPRGMAVTISVKCEKISTLSCENKIISFKEMNPPDSIKDTKSDIIFFQRSVPGHDNKMQFESSSYEGYFLACEKERDLFKLILKKEDELGDRSIMFTVQNED", "0.83 fold"),
    ("IL-18 variant polypeptide M32 (ligand) YFPKLGSKLSVIRNLNDQVLFIDQGNRPLFEDMTDSDCRDNAPRTIFIISMYKSSSRRGMAVTISVKCEKISTLSCENKIISFKEMNPPDNIKDTKSDIIFFQRSVPGHDNKMQFESSSYEGYFLACEKERDLFKLILKKEDELGDRSIMFTVQNED", "0.77 fold"),
]
